This collection of values is drawn from ChEMBL document CHEMBL1201862.

System: NCI-H460
Assay: NCI tumour cell line growth inhibition, 48 h
Activity calls are given as the source filed them. No stated cut-off is given here; in the data, active = GI50 up to about 1.1 µM and inactive = higher.
Field 'call' accepts active, inactive

Consider the worked cases shown below.
Compound	Group label
O=C(CCc1nnc2s/c(=C\c3ccc(Cl)c(Cl)c3)c(=O)n12)Nc1ccc(Cl)c(Cl)c1	inactive
CC(/C=C/C=C\C=C\C=C(/C)C(=O)NC(C)CO)=C\C(C)C(O)/C(C)=C/C(C)CCc1ccccc1 (centres undefined)	inactive
CC1=C2C(O)C(C(C)C(=O)NC(C)C)CCC2(C)C=CC1=O (centres undefined)	inactive
CCOC(=O)C(C)NC(=O)NC12CC3CC(CC(F)(C3)C1)C2 (centres undefined)	inactive
O=C1C(Cl)C(c2ccccc2)N1n1cnc2ccccc2c1=O (centres undefined)	inactive

Exercise: Outcome logged for O=C(C1OC1c1ccc(F)cc1)C12CC3CC(CC(C3)C1)C2 (centres undefined) in this assay:
Key: inactive

Exercise: Outcome logged for CCOc1ccccc1NC(=O)C(=O)Cc1nc2ccccc2s1 in this assay:
Key: inactive

Exercise: Outcome logged for COC(=O)C(CCC1C=CN(S(=O)(=O)c2ccc(C)cc2)C1)/N=C/c1ccccc1 (centres undefined) in this assay:
Key: inactive

Exercise: Outcome logged for O=C(/C=C/c1ccccc1Cl)c1ccc(Cl)c(Cl)c1 in this assay:
Key: inactive

Exercise: Outcome logged for CCCCNCC(=O)O[C@]1(CC)C(=O)OCc2c1cc1n(c2=O)Cc2cc3ccccc3nc2-1 in this assay:
Key: active

Exercise: Outcome logged for C=C1C(O)C2OC(=O)C(=C)C2C(OC(=O)/C(C)=C/C)CC2(C)OC2C2OC12 (centres undefined) in this assay:
Key: inactive

---

Tested on: SK-OV-3
Assay: NCI tumour cell line growth inhibition, 48 h
Active and inactive are the calls of the source. Cut-off read from the data, not from the text of the source: active = GI50 up to about 1.1 µM and inactive = higher.
Measure: GI50

// worked examples, GI50 included
Molecule	GI50
CSC1=NN=C(SC)NN1	0.186 µM (active)
COC(=O)C(CCS(=O)(=O)CC(=O)C(=O)Nc1cccc(C(C)=O)c1)C(=O)OC	> 100 µM (inactive)
CC(=O)/C=C1\CC(=O)Nc2ccccc2N1	> 100 µM (inactive)
O=C1O/C(=C\c2ccc(O)c(Br)c2)C(c2ccc(O)cc2)=C1Cl	> 100 µM (inactive)
C=C1C(O)C2OC(=O)C(=C)C2C(OC(=O)/C(C)=C/C)CC2(C)OC2C2OC12 (stereo unspecified)	43.6 µM (inactive)
CC(=O)Nc1ccc(-c2cc(C(=O)O)c3cc4ccccc4cc3n2)cc1	> 100 µM (inactive)

Exercise: GET /values?readout=GI50&item= O=c1n(CC2CS2)c2ccccc2n1CC1CS1 (stereo unspecified)
Key: > 100 µM (inactive)

Exercise: GET /values?readout=GI50&item= COC(=O)c1ccc(COC(=O)N2C=CCC2C(=O)O)cc1 (stereo unspecified)
Key: > 100 µM (inactive)

Exercise: GET /values?readout=GI50&item= COC(=O)c1cc(NC(=O)Cc2c[nH]c3ccccc23)cn1C
Key: > 100 µM (inactive)

Exercise: GET /values?readout=GI50&item= COC(=O)[C@]1(C)CC[C@]2(C)CC[C@]3(C)C4[C@H]5Oc6c(cc7c(c6C)CCC6[C@@]7(C)CC[C@@]7(C)C8[C@](C)(CCC[C@@]8(C)C(=O)OC)CC[C@]67C)O[C@H]5c5c(cc6c(c5C)O[C@@]5(C)C7=CC=C8[C@@](C)(CC[C@@]9(C)[C@@H]%10C[C@](C)(C(=O)OC)CC[C@]%10(C)CC[C@]89C)C7=CC(=O)[C@@]5(O)O6)[C@]4(C)CC[C@@]3(C)C2C1 (stereo partly specified)
Key: > 12.5 µM (inactive)

Exercise: GET /values?readout=GI50&item= O=CC(O)C(O)C(O)C(O)C(=O)NCCCCCCCCCCCCNC(=O)C(O)C(O)C(O)C(O)C=O (stereo unspecified)
Key: > 100 µM (inactive)

Exercise: GET /values?readout=GI50&item= CCCCCCCCCCCCCCCC(=O)OCC1CCCN2CCCCC12 (stereo unspecified)
Key: > 100 µM (inactive)

---

Tested on: RXF 393
Experiment: NCI tumour cell line growth inhibition, 48 h
The source made the active and inactive calls. Cut-off read from the data, not from the text of the source: active = GI50 up to about 1.1 µM and inactive = higher.
Field 'call' accepts label 1 = active, label 0 = inactive

Compound	Experimental system	Group label
CCCC(=O)NC1=C(Cl)C(=O)c2ccccc2C1=O	RXF 393	label 0
CCCCCCCCCCCCCCCC[N+](C)(C)CCl	RXF 393	label 0
Nc1ccc(C(=O)CC2(O)C(=O)Nc3ccccc32)cc1 (stereo unspecified)	RXF 393	label 0
CC(=O)c1cc2c(s1)C(=O)c1ccsc1C2=O	RXF 393	label 1
Cn1ccnc1CCc1ccc(Cl)cc1Cl	RXF 393	label 0
COc1cc(OC)c(OC)cc1/C=C/c1ccccn1	RXF 393	label 0

Exercise: Outcome logged for COc1ccc2cc3[n+](cc2c1OC)CCc1cc(O)c(O)cc1-3 in this assay:
Key: label 0

Exercise: Outcome logged for Cc1cc(C)nc(NS(=O)(=O)c2ccc(NNC(=O)c3cccc4c(=O)c5ccccc5[nH]c34)cc2)n1 in this assay:
Key: label 0

Exercise: Outcome logged for CC(=O)/C=C1\CC(=O)Nc2ccccc2N1 in this assay:
Key: label 0

---

Below, each entry is listed with its recorded GI50.
Test system: BT-549
Assay: NCI tumour cell line growth inhibition, 48 h
Active and inactive are the calls of the source. Cut-off read from the data, not from the text of the source: active = GI50 up to about 1.1 µM and inactive = higher.

// worked examples, GI50 included
Molecule	Result
COc1cc(COC(=O)N(C)[C@@H](Cc2ccccc2)C(=O)O)c([N+](=O)[O-])cc1OC	> 100 µM (inactive)
CCC(CCCN)Nc1cc(OC)cc2c(C)ccnc12 (configuration not stated)	14.9 µM (inactive)
CCC(C)N1CN(c2ccccc2)C2(CCN(CCCC3(c4ccc(F)cc4)OCCO3)CC2)C1=O (configuration not stated)	2 µM (inactive)
CC1(C)[N+]([O-])=[N+]([O-])C1(C)O (configuration not stated)	> 100 µM (inactive)
S=c1scc(-c2ccc(Cl)cc2)n1OC1CCCC1	30.2 µM (inactive)

Exercise: GET /values?readout=GI50&item= Oc1ccc(Cc2nccc3cc(O)c(O)cc23)cc1O
Key: 54.3 µM (inactive)

Exercise: GET /values?readout=GI50&item= CC(C)=CCC/C(C)=C/CCC1(C)C2COC(=O)C21 (configuration not stated)
Key: 49.8 µM (inactive)

---

System: DLD-1
Experiment: NCI tumour cell line growth inhibition, 48 h
Activity calls are given as the source filed them. No stated cut-off is given here; in the data, active = GI50 up to about 1.1 µM and inactive = higher.
Measure: GI50

Compound	GI50
CC1(C)OCC([C@H]2CC23SCCCS3)O1 (stereo partly specified)	> 100 µM (inactive)

Exercise: GET /values?readout=GI50&item= Cc1[nH]c2ccccc2c1C(=O)CC1(O)C(=O)Nc2ccccc21 (stereo unspecified)
Key: > 100 µM (inactive)

Exercise: GET /values?readout=GI50&item= Cc1ccc(Nc2nc3c(s2)C(=O)c2ccccc2C3=O)c(C)c1
Key: 15.1 µM (inactive)

Exercise: GET /values?readout=GI50&item= COC(=O)C1Cc2c([nH]c3ccccc23)C(C2CCCCC2)N1 (stereo unspecified)
Key: > 100 µM (inactive)

Exercise: GET /values?readout=GI50&item= O=C(/C=C/c1ccccc1Cl)c1ccc(Cl)c(Cl)c1
Key: 15.8 µM (inactive)

Exercise: GET /values?readout=GI50&item= CNC(=O)NCCCCC(NC(C)=O)C(=O)NCc1ccccc1 (stereo unspecified)
Key: > 100 µM (inactive)

Exercise: GET /values?readout=GI50&item= CCCCCCCCCCCCCCNCC(OCC)OCC
Key: 13.7 µM (inactive)

Exercise: GET /values?readout=GI50&item= COc1ccc(/C(Cl)=C(\C=O)c2ccc(F)cc2)cc1OC
Key: 21.8 µM (inactive)

---

Test system: SN12C
Assay: NCI tumour cell line growth inhibition, 48 h
Active and inactive are the calls of the source. Cut-off read from the data, not from the text of the source: active = GI50 up to about 1.1 µM and inactive = higher.
Measure: GI50

// worked examples, GI50 included
Compound	GI50
Cc1cn(C2CC(COCc3ccccc3)N(CCO[Si](C)(C)C(C)(C)C)O2)c(=O)[nH]c1=O (stereo not drawn)	11 µM (inactive)
COCCCNc1nc(N)c(C#N)c(C#N)c1C#N	> 10 µM (inactive)

Exercise: GET /values?readout=GI50&item= CC1CC(=O)Nc2ccc(/N=N/N(C)C)cc2N1C=O (stereo not drawn)
Key: > 100 µM (inactive)

Exercise: GET /values?readout=GI50&item= COc1ccc(NC(=O)CC(=O)N2N=C(N3c4ccccc4Sc4ccccc43)CC2c2ccccc2)cc1 (stereo not drawn)
Key: > 100 µM (inactive)

Exercise: GET /values?readout=GI50&item= COC(=O)/C=C(/C(=O)OC)c1c(C)c(C)c2c(C)cc(C)cc(C)c1-2
Key: 38.8 µM (inactive)

Exercise: GET /values?readout=GI50&item= Cc1nc2c3c(ccc2nc1O)C(=O)c1ccccc1C3=O
Key: 42.2 µM (inactive)

Exercise: GET /values?readout=GI50&item= N/N=C1\C(=O)N(C2CCCCC2)C(=O)C1C(=O)NC1CCCCC1 (stereo not drawn)
Key: 31.6 µM (inactive)

Exercise: GET /values?readout=GI50&item= COc1ccc2c(ccc3c(C(=O)NCCN(C)CCNC(=O)c4cn(C)c5c4ccc4cc(OC)ccc45)cn(C)c32)c1
Key: 1.49 µM (inactive)

Exercise: GET /values?readout=GI50&item= COc1ccc2c(c1)CCC1C3(CCCC21C)OCCO3 (stereo not drawn)
Key: 16.3 µM (inactive)

Exercise: GET /values?readout=GI50&item= O=c1n(CC2CS2)c2ccccc2n1CC1CS1 (stereo not drawn)
Key: 87.7 µM (inactive)

Exercise: GET /values?readout=GI50&item= C=CCc1cc(-c2cc(CC=C)c(O)c(CNCCCl)c2)cc(CNCCCl)c1O
Key: 19.8 µM (inactive)

Exercise: GET /values?readout=GI50&item= CC(/C=C/C=C\C=C\C=C(/C)C(=O)NC(C)CO)=C\C(C)C(O)/C(C)=C/C(C)CCc1ccccc1 (stereo not drawn)
Key: 12.8 µM (inactive)

Exercise: GET /values?readout=GI50&item= O=S(=O)(c1ccccc1)c1ccc(/N=N/O)nc1
Key: > 100 µM (inactive)
